- experimentalTarget: IRAK4 protein in THP-1 cells (Homo sapiens (Human))
- Sequence (Q9NWZ3 whole entry): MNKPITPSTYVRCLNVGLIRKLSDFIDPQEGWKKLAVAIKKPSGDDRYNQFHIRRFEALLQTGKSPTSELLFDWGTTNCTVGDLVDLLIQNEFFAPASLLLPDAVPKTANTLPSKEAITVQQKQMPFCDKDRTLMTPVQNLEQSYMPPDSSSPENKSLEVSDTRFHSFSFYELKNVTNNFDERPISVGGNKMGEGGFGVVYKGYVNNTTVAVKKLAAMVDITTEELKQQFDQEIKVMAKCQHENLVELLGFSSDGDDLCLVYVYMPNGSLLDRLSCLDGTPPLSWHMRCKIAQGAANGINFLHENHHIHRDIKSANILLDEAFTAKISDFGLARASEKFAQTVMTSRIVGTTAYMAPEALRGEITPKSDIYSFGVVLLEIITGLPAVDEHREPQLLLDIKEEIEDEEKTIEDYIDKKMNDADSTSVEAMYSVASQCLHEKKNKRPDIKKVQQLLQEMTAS
- methodSummary: PROTAC-induced IRAK4 protein degradation in THP-1 cells (Western Blot)
- Format: cell-based
- conditions: concentration that degraded 50% of IRAK4, Western blotting, 24 hours after administration
measuredEndpoint: DC50 (nM)

Example cases with answers are listed next.
Measured DC50, CC(C)(O)c1cc2nn(C3CCN(CC(=O)N4CCN(c5ccc6c(c5)C(=O)N(C5CCC(=O)NC5=O)C6=O)CC4)CC3)cc2cc1NC(=O)c1cccc(C(F)(F)F)n1 (stereo not shown) [II-6] : 9.99

According to the records, this molecule COc1cc2nn(C3CC4(CCN(C(=O)C5(C)CCN(c6ccc7c(c6)C(=O)N(C6CCC(=O)NC6=O)C7=O)CC5)CC4)C3)cc2cc1NC(=O)c1cccc(C(F)(F)F)n1 (stereo not shown) [Compound I-37] displays DC50 of 20.7

Sample COc1cc2nn(C3CC4(CCN(C(=O)C5CCN(c6ccc7c(c6)C(=O)N(C6CCC(=O)NC6=O)C7=O)CC5)CC4)C3)cc2cc1NC(=O)c1ccn(C(F)F)n1 (stereo not shown) [Compound I-47] ; DC50 observed: 5.53

Lab note: measured DC50 of COc1cc2nn(C3CC4(CCC(C(=O)N5CCN(c6ccc7c(c6)C(=O)N(C6CCC(=O)NC6=O)C7=O)CC5)CC4)C3)cc2cc1NC(=O)c1cccc(C(F)(F)F)n1 (stereo not shown) [Compound I-20] was 11.2

Looking up COc1cc2nn(C3CC4(CCN(C(=O)C5(F)CCN(c6ccc7c(c6)C(=O)N(C6CCC(=O)NC6=O)C7=O)CC5)CC4)C3)cc2cc1NC(=O)c1cccc(N2CCOCC2)n1 (stereo not shown) [Compound I-50] , I found its DC50 recorded as 21.6

[1] COc1cc2nn(C3CC4(CCN(C(=O)C5(O)CCN(c6ccc7c(c6)C(=O)N(C6CCC(=O)NC6=O)C7=O)CC5)CC4)C3)cc2cc1NC(=O)c1cccc(C(F)(F)F)n1 (stereo not shown) [Compound I-33]
[2] COc1cc2nn(C3CC4(CCN(C(=O)[C@H]5CC[C@H](C(=O)N[C@H](C(=O)N6C[C@H](O)C[C@H]6C(=O)N[C@@H](C)c6ccc(-c7scnc7C)cc6)C(C)(C)C)CC5)CC4)C3)cc2cc1NC(=O)c1cccc(C(F)(F)F)n1 [Compound I-29]
[3] COc1cc2nn(C3CC4(CCN(C(=O)C5CCN(c6ccc7c(c6)CN(C6CCC(=O)NC6=O)C7=O)CC5)CC4)C3)cc2cc1NC(=O)c1cccc(C(F)(F)F)n1 (stereo not shown) [Compound I-7]
[4] COc1cc2nn(C3CC4(CCN(C(=O)C5CCC6(CC5)CN(c5ccc7c(c5)C(=O)N(C5CCC(=O)NC5=O)C7=O)C6)CC4)C3)cc2cc1NC(=O)c1cccc(C(F)(F)F)n1 (stereo not shown) [Compound I-26]
Prompt line: Arrange the 4 molecules from largest to smallest DC50. Please, when replying, give the labels in the order that was requested.
Response line: 4, 2, 1, 3
